Listed compounds paired with reported IC50
target: human TLR9 (Homo sapiens, UniProt Q9NR96); construct: host or cells: HEK-Blue cells; assay: TLR9 inhibition reporter assay (HEK-Blue cells, SEAP reporter, ODN2006 stimulation); assay type: cell-based; settings: HEK-Blue cells overexpressing human TLR9, SEAP reporter, ODN2006 5 nM
The reply should be a number in µM, with the unit left off.

COMPOUND | TEST_TARGET | READOUT_UNIT | IC50
Cc1cc(-c2[nH]nc(C(=O)NC3CCN(CC4CCOCC4)CC3)c2CC(F)(F)F)cn2ncnc12 | human TLR9 (Homo sapiens, UniProt Q9NR96) | µM | 17.8
Cc1cc(-c2[nH]nc(-c3ccc(N4CC(N(C)C)C4)cc3)c2C(C)C)cn2ncnc12 | human TLR9 (Homo sapiens, UniProt Q9NR96) | µM | 37.7
Cc1cc(-c2[nH]nc(C(=O)NCC3CN(C4COC4)CCO3)c2C(C)C)cn2ncnc12 (stereo not shown) [Example 136] | human TLR9 (Homo sapiens, UniProt Q9NR96) | µM | 42.8
CNCc1n[nH]c(-c2cc(C)c3ncnn3c2)c1C(C)C | human TLR9 (Homo sapiens, UniProt Q9NR96) | µM | 23
Cc1cc(-c2[nH]nc(C(=O)N(C)Cc3cccnc3)c2C(C)C)cn2ncnc12 | human TLR9 (Homo sapiens, UniProt Q9NR96) | µM | 3.43
Cc1cc(-c2[nH]nc(C(=O)N[C@H]3CC[C@@H](N(CCC(C)(C)C)CCC(C)(C)C)CC3)c2C(C)C)cn2ncnc12 | human TLR9 (Homo sapiens, UniProt Q9NR96) | µM | 11.1

Turning now to a further compound:
// query Item CCN1CCC[C@H](NC(=O)c2n[nH]c(-c3cc(C)c4ncnn4c3)c2C(C)C)C1 with human TLR9 (Homo sapiens, UniProt Q9NR96) - IC50?
// result 15.6

----------
Molecular target: human TLR9 (Homo sapiens, UniProt Q9NR96)
Construct: host or cells: HEK-Blue cells
Sequence (Q9NR96 26-1032): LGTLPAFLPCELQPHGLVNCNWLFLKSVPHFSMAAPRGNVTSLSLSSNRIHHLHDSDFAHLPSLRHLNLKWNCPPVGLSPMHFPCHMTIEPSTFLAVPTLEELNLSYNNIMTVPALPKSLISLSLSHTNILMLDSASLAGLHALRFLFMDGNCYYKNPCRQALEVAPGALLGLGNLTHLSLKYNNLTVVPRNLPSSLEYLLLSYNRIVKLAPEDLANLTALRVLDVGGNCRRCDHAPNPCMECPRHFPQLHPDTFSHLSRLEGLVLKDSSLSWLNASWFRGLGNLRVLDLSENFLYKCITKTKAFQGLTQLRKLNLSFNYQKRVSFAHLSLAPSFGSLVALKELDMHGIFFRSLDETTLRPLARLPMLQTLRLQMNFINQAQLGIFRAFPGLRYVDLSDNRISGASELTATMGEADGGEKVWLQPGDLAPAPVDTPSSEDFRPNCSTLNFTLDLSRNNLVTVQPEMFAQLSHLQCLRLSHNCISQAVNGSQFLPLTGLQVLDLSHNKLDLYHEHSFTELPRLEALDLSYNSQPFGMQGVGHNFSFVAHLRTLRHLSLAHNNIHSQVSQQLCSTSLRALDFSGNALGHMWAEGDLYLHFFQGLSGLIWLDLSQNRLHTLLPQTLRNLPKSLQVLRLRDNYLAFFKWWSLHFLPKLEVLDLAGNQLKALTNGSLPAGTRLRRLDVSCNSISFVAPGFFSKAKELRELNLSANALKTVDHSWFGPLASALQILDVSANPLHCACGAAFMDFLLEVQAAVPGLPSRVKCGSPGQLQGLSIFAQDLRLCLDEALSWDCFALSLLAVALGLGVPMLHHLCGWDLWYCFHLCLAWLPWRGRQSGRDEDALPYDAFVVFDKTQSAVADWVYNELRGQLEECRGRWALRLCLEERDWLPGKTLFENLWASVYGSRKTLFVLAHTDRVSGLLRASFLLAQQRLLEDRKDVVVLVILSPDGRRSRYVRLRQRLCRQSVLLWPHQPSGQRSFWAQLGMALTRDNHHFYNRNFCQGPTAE
Test: TLR9 inhibition reporter assay (HEK-Blue cells, SEAP reporter, ODN2006 stimulation)
Assay type: cell-based
Settings: HEK-Blue cells overexpressing human TLR9, SEAP reporter, ODN2006 5 nM
pIC50: −log10 of the molar value.
condition met means recorded pIC50 is 5 or above; condition not met means it is below 5.

Sample answers from the record:
COMPOUND | CATEGORY_LABEL
Cc1cc(-c2[nH]nc(-c3ccc(C4CN(C)C4)cc3)c2C(C)C)cn2ncnc12 | condition met
Cc1cc(-c2[nH]nc(C(=O)NC3CCC(NC4(C)COC4)CC3)c2C(C)C)cn2ncnc12 (stereo not drawn) [Example 123] | condition met
COc1cc(-c2[nH]nc(-c3ccc(C4CCN(C)CC4)cn3)c2C(C)C)cn2ncnc12 | condition not met
COc1cc(-c2[nH]nc(-c3ccc(C4CCN(CC(C)(C)O)CC4)cn3)c2C(C)C)cn2ncnc12 | condition not met
Cc1cc(-c2cc(C(=O)NC3CCN(C(C)C)CC3)n[nH]2)cn2ncnc12 | condition met

// query Entry CCN1CC(C(=O)N(C)C2CCC(c3n[nH]c(-c4cc(C)c5ncnn5c4)c3C(C)C)CC2)C1 (single isomer, unassigned) [Example 305] : is its pIC50 no less than 5?
// result condition not met

----------
target: human TLR8 (Homo sapiens); experiment: TLR8 inhibition reporter assay (HEK-Blue cells, SEAP reporter, R848 stimulation); settings: HEK-Blue cells overexpressing human TLR8, SEAP reporter, R848 15.9 μM
Listed compounds paired with reported IC50
The reply should be a number in nM, with the unit left off.

COMPOUND | ASSAY_READOUT | NUMERIC_RESULT
Cc1cc(-c2[nH]nc(-c3ccncc3)c2C(C)C)cn2ncnc12 | IC50 | 10.3

Turning now to a further compound:
// query Which IC50 reading was recorded for the compound CCN(CC)CC(=O)N1CCC(c2cnc(-c3n[nH]c(-c4cc(OC)c5ncnn5c4)c3C(C)C)cn2)CC1 ?
// result 124

----------
Listed molecules paired with reported IC50
molecular target: human TLR7 (Homo sapiens); assay: TLR7 inhibition reporter assay (HEK-Blue cells, SEAP reporter, gardiquimod stimulation); conditions: HEK-Blue cells overexpressing human TLR7, SEAP reporter, gardiquimod 7.5 μM
Sequence (Q9NYK1 27-1049): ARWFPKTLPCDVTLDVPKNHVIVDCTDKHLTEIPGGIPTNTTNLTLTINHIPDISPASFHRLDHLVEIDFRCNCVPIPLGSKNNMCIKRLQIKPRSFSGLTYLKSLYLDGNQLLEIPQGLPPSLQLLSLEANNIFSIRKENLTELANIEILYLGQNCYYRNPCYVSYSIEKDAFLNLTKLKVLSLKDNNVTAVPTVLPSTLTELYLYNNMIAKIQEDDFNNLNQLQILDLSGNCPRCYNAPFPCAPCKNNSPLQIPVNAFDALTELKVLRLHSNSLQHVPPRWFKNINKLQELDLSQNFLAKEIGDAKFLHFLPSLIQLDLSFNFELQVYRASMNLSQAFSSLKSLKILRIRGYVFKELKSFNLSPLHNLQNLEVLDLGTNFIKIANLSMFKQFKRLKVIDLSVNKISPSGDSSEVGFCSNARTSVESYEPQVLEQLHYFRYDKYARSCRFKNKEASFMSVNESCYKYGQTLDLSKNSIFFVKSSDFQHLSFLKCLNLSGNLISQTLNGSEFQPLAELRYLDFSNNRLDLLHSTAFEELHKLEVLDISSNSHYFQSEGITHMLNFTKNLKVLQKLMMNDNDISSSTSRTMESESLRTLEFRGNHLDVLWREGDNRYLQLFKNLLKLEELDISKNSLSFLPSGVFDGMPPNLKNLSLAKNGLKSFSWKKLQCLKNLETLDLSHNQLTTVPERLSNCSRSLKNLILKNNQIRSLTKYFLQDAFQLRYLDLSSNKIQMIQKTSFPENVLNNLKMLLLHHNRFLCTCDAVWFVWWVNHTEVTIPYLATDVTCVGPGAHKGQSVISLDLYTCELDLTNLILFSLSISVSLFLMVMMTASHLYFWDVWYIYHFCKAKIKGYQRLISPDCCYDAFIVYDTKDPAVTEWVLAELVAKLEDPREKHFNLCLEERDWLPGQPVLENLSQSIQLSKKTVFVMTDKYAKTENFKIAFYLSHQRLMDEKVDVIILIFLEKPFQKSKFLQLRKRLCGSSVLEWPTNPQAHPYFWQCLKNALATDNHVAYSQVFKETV
The reply should be a number in nM, with the unit left off.

Guide cases for IC50, answers given:
MOLECULE | ASSAY_READOUT | NUMERIC_RESULT
Cc1cc(-c2[nH]nc(-c3nc4c(s3)CN(C3COC3)CC4)c2C(C)C)cn2ncnc12 | IC50 | 4.7
COc1ncc(CN[C@H]2CC[C@H](NC(=O)c3n[nH]c(-c4cc(C)c5ncnn5c4)c3C(C)C)CC2)cn1 | IC50 | 3.63
COc1cc(-c2[nH]nc(-c3ccc(C4CCNCC4)cc3)c2C(C)C)cn2ncnc12 | IC50 | 0.18
Cc1cc(-c2[nH]nc(-c3ncc(C4CCN(CC(C)(C)C)CC4)cn3)c2C(C)C)cn2ncnc12 | IC50 | 72.1
Cc1cc(-c2[nH]nc(C3CCC(NCCN(C)C)CC3)c2C(C)C)cn2ncnc12 (single isomer, unassigned) [Example 285] | IC50 | 7.7
Cc1cc(-c2[nH]nc(C(=O)NC3CCN(C(C)C)CC3)c2C(C)C)cn2ccnc12 | IC50 | 12.1
Cc1cc(-c2[nH]nc(C(=O)N[C@H]3CC[C@@H](N(CCC(C)(C)C)CCC(C)(C)C)CC3)c2C(C)C)cn2ncnc12 | IC50 | 0.8
Cc1cc(-c2[nH]nc(C(=O)N[C@H]3CC[C@H](NC(C)C(C)(C)C)CC3)c2C(C)C)cn2ncnc12 (stereo partly shown) | IC50 | 11.8

// query Which IC50 reading was recorded for the molecule Cc1cc(-c2[nH]nc(C(=O)N[C@H]3CC[C@H](NCC4CCOCC4)CC3)c2C(C)C)cn2ncnc12 ?
// result 2.97

// query Which IC50 reading was recorded for the molecule Cc1cc(-c2[nH]nc(-c3ccc4c(c3)CCN(C3COC3)C4)c2C(C)C)cn2ncnc12 ?
// result 5.87

// query Which IC50 reading was recorded for the molecule Cc1cc(-c2[nH]nc(C(=O)N3CCN(CCC#N)CC3)c2C(C)C)cn2ncnc12 ?
// result 1.4

// query Which IC50 reading was recorded for the molecule Cc1cc(-c2[nH]nc(C(=O)N[C@H]3CC[C@@H](NCC4CCOCC4)CC3)c2C(C)C)cn2ncnc12 ?
// result 0.31

// query Which IC50 reading was recorded for the molecule COc1cc(-c2[nH]nc(C(=O)NCC3CCNCC3)c2C(C)C)cn2ncnc12 ?
// result 88.6

----------
Target: human TLR8 (Homo sapiens)
Sequence (Q9NR97 27-1041): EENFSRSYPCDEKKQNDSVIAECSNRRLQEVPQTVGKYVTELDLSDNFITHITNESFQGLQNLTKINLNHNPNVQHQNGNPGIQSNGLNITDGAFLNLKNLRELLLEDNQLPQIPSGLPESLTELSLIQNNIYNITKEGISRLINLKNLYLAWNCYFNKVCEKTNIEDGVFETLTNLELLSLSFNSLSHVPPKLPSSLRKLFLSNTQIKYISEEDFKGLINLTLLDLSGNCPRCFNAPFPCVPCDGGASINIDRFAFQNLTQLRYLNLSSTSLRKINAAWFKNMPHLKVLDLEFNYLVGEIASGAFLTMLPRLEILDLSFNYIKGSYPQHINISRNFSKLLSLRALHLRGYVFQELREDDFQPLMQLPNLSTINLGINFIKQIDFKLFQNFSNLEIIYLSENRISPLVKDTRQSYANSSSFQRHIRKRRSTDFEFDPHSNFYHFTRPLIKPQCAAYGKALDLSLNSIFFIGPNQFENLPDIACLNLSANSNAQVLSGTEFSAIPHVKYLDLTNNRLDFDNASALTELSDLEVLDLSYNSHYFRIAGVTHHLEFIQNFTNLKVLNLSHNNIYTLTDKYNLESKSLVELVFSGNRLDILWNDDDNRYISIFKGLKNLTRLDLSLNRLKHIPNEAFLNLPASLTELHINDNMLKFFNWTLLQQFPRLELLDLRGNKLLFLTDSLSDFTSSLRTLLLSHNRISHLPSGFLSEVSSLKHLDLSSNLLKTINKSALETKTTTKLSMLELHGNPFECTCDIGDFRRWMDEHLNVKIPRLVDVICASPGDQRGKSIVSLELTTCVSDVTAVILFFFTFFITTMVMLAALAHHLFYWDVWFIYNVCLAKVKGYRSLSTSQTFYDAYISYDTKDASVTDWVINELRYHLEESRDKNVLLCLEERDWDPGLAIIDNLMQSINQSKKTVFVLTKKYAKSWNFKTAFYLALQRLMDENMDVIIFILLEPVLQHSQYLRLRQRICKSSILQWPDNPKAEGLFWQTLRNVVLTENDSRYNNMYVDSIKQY
Assay: TLR8 inhibition reporter assay (HEK-Blue cells, SEAP reporter, R848 stimulation)
Settings: HEK-Blue cells overexpressing human TLR8, SEAP reporter, R848 15.9 μM
Listed molecules paired with reported IC50
The reply should be a number in nM, with the unit left off.

Guide cases for IC50, answers given:
MOLECULE | IC50, nM
CNC1CCC(NC(=O)c2n[nH]c(-c3cc(C)c4ncnn4c3)c2C(C)C)CC1 (centres unmarked) [Example 129] | 7.36
Cc1cc(-c2[nH]nc(C(=O)NCC3CN(C(C)C)CCO3)c2C(C)C)cn2ncnc12 (centres unmarked) [Example 135] | 38.9
COc1cc(-c2[nH]nc(-c3ccc(C4CCN(C5CCOCC5)CC4)cc3)c2C(C)C)cn2ncnc12 [Example 313] | 1.72
Cc1cc(-c2[nH]nc(-c3ccc4c(c3)CCN(C)C4)c2C(C)C)cn2ncnc12 [Example 235] | 1.01
COc1cc(-c2[nH]nc(-c3ccc(C4CN(CCS(C)(=O)=O)C4)cc3)c2C(C)C)cn2ncnc12 [Example 338] | 31.1
Cc1cc(-c2[nH]nc(-c3nc4c(s3)CN(C(=O)CN(C)C)CC4)c2C(C)C)cn2ncnc12 [Example 270] | 14
COCCNc1ccc2nc(-c3n[nH]c(-c4cc(C)c5ncnn5c4)c3C(C)C)sc2c1 [Example 267] | 7.16

Turning now to a further molecule:
// query Which IC50 reading was recorded for the molecule Cc1cc(-c2[nH]nc(-c3ccc(N4CCNCC4)cc3)c2C(C)C)cn2ncnc12 [Example 406] ?
// result 142
